- Test system: K562
- protocol: cell viability relative to vehicle control; higher = less cytotoxic;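 also: after 48 h exposure read by CellTiter-Glo luminescence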
- experimentalParameters: 10 µM; SRSF2 genotype: SRSF2 wt/wt
Structures can show the parent of a compound that is named as a salt.

molecule	cell viability / %
OC[C@H]1NC[C@H](O)[C@@H](O)[C@@H]1O	94.5
OCC(O)C(O)C(O)C(O)CO (centres undefined)	99.7
Oc1ncnc2[nH]ncc12 [Allopurinol (Zyloprim)]	104
COc1cc2nc(N3CCN(C(=O)C4CCCO4)CC3)nc(N)c2cc1OC (centres undefined) [Terazosin HCl Dihydrate]	97
COc1cc(-c2cc(-c3cccc(O)c3)cnc2N)cc(OC)c1OC	15.6
CCCCC1OC(=O)c2ccccc21 (centres undefined) [3-n-Butylphathlide]	91.5
CC(C)(C)c1nc(-c2cccc(NS(=O)(=O)c3c(F)cccc3F)c2F)c(-c2ccnc(N)n2)s1	84.3
CO[C@H]1/C=C/O[C@@]2(C)Oc3c(C)c(O)c4c(O)c(cc(O)c4c3C2=O)NC(=O)/C(C)=C\C=C\[C@H](C)[C@H](O)[C@@H](C)[C@@H](O)[C@@H](C)[C@H](OC(C)=O)[C@@H]1C [Rifamycin sodium salt]	13
CCOc1ccc(NC(C)=O)cc1	91.5

* * *

- Test system: MOLM14
- protocol: cell viability relative to vehicle control; higher = less cytotoxic
- experimentalParameters: 10 µM; SRSF2 genotype: SRSF2 P95H/wt
Counter-ions that a name gives are not always drawn.
This section presents compounds with their documented cell viability values.
propertyLabel: cell viability (%)

compound	measuredOn	propertyLabel	unitAnnotation	numericReadout
COc1cccc(-c2cc(=O)c3ccccc3o2)c1N	MOLM14	cell viability	%	99.5
C[C@@H]1O[C@@H](OC[C@H]2O[C@@H](Oc3c(-c4ccc(OCCO)c(OCCO)c4)oc4cc(OCCO)cc(O)c4c3=O)[C@H](O)[C@@H](O)[C@@H]2O)[C@H](O)[C@H](O)[C@H]1O [Troxerutin]	MOLM14	cell viability	%	86.3
CC1(C)C2CCC1(C)C(O)C2 (single isomer, unassigned; (-)) [(-)-Borneol]	MOLM14	cell viability	%	101
CCc1ccc(C(=O)C(C)CN2CCCCC2)cc1 (stereo not given) [Eperisone hydrochloride]	MOLM14	cell viability	%	38.1
[Na+].[Na+].[Na+].[Na+].[Na+].[Na+].[O]=[W](=[O])([O-])[O-].[O]=[W](=[O])([O-])[O-].[O]=[W](=[O])([O-])[O-].[O]=[W](=[O])=[O].[O]=[W](=[O])=[O].[O]=[W](=[O])=[O].[O]=[W](=[O])=[O].[O]=[W](=[O])=[O].[O]=[W](=[O])=[O].[O]=[W](=[O])=[O].[O]=[W](=[O])=[O].[O]=[W](=[O])=[O] [SodiuM Metatungstate]	MOLM14	cell viability	%	103

* * *

- Tested on: K562
- protocol: cell viability relative to vehicle control; higher = less cytotoxic
- experimentalParameters: 10 µM; SRSF2 genotype: SRSF2 wt/wt
propertyLabel: cell viability (%)

compoundStructureString	propertyLabel	numericReadout
COc1cc(O)cc2c1C(=O)C[C@@H](c1ccccc1)O2	cell viability	96.5
CC#CC(=O)N1CCC[C@H]1c1nc(-c2ccc(C(=O)Nc3ccccn3)cc2)c2c(N)nccn12	cell viability	94.1
COc1ccc(-c2cc3c(C)nc(N)nc3n([C@H]3CC[C@H](OCCO)CC3)c2=O)cn1	cell viability	39.5
COc1ccc2ccc(=O)oc2c1CC=C(C)C	cell viability	90.1
Cc1cc2c(C(N)=O)cccc2n1-c1nc2c(c(NCc3ccccc3)n1)COCC2	cell viability	0.74

* * *

This section presents compounds with their documented cell viability values.
- System: MOLM14
- protocol: cell viability relative to vehicle control; higher = less cytotoxic
- experimentalParameters: 10 µM; SRSF2 genotype: SRSF2 wt/wt
Counter-ions that a name gives are not always drawn.
propertyLabel: cell viability (%)

compound	measuredOn	unitAnnotation	numericReadout
Cc1cc([N+](=O)[O-])ccc1NS(=O)(=O)c1cc(Cl)ccc1Cl	MOLM14	%	90.9
O=S(=O)(c1ccccc1)c1cnc2c(N3CCNCC3)cccc2c1	MOLM14	%	100
O=C[C@H](O)[C@@H](O)[C@H](O)CO	MOLM14	%	95.2
CCC(=O)Nc1cccc(Oc2nc(Nc3ccc(N4CCN(C)CC4)cc3OC)ncc2Cl)c1	MOLM14	%	40.7
CC(=O)c1ccc(NN=C(C(N)=O)C2=NC(C)(C)Cc3ccccc32)cc1	MOLM14	%	14.7
O=c1[nH]cnc2c1ncn2[C@H]1C[C@H](O)[C@@H](CO)O1	MOLM14	%	118
CCCCCCCCCCCCN1CCCCCC1=O	MOLM14	%	90.8
COc1ccc(-c2coc3cc(O)ccc3c2=O)cc1	MOLM14	%	99.6
CCC(=O)NCC[C@@H]1CCc2ccc3c(c21)CCO3	MOLM14	%	98.8
CCN(CC)C(=S)SSC(=S)N(CC)CC	MOLM14	%	32.5
CCCCC(F)(F)[C@@]1(O)CC[C@H]2[C@@H](CC(=O)[C@@H]2CCCCCCC(=O)O)O1	MOLM14	%	98.8
CCC[C@H](N[C@H]1CCc2cc(F)cc(F)c2C1)C(=O)Nc1cn(C(C)(C)CNCC(C)(C)C)cn1	MOLM14	%	88.8
O=C1C(c2[nH]c3ccc(S(=O)(=O)O)cc3c2O)=Nc2ccc(S(=O)(=O)O)cc21	MOLM14	%	99.5
CCS(=O)(=O)Nc1ccc2[nH]c(O)c(C(=Nc3ccc(CN4CCCCC4)cc3)c3ccccc3)c2c1	MOLM14	%	0.3
O=C(O)c1ccco1	MOLM14	%	101
O=C(NCCN1CCOCC1)Nc1ccc(C(=O)/C=C/c2cccc(N3CCOCC3)n2)cc1	MOLM14	%	1.01
CCOC(=O)Nc1cc(-c2ccc(C)c(NS(C)(=O)=O)c2)nn2c(C)nnc12	MOLM14	%	1.48
O=C1CN(/N=C/c2ccc(-c3ccc([N+](=O)[O-])cc3)o2)C(=O)N1 [Dantrolene sodium hemiheptahydrate]	MOLM14	%	101
c1ccc2c(CC3=NCCN3)cccc2c1 [Naphazoline hydrochloride (Naphcon)]	MOLM14	%	103
C/C=C(\C)C(=O)OC1c2c(ccc3ccc(=O)oc23)OC(C)(C)C1OC(=O)/C(C)=C/C (stereo unspecified)	MOLM14	%	94.7
O=C(O)CSc1nnc(Br)n1-c1ccc(C2CC2)c2ccccc12	MOLM14	%	101
CC1(C)OCCn2c1nc1c(N3CCOCC3)nc(-c3cnc(N)nc3)nc12	MOLM14	%	23.9
Nc1nc(N)c2nc(-c3cccc(O)c3)cnc2n1	MOLM14	%	57.8
CC(C)(O)C1CCC(C)(C2C(O)CC3(C)C4CC(OC5OC(CO)C(O)C(O)C5O)C5C(C)(C)C(OC6OCC(O)C(O)C6O)CCC56CC46CCC23C)O1 (stereo unspecified) [Astragaloside A]	MOLM14	%	107
OCC1OC(OC2OC(CO)C(O)C(O)C2O)C(O)C(O)C1O [D-(+)-Trehalose Anhydrous]	MOLM14	%	107
COC(=O)/C=C/C(=O)OC [Dimethyl Fumarate]	MOLM14	%	99.5
CC1CCC2(C(=O)OC3OC(CO)C(O)C(O)C3O)CCC3(C)C(=CCC4C5(C)CCC(OC6OCC(O)C(O)C6O)C(C)(C)C5CCC43C)C2C1(C)O (stereo unspecified) [Ziyu-glycoside I]	MOLM14	%	105
COc1ccc2cc3[n+](cc2c1OC)CCc1cc2c(cc1-3)OCO2 [Berberine Sulfate]	MOLM14	%	75.3
CC(C(=O)O)c1ccc(-c2ccccc2)c(F)c1 (stereo unspecified)	MOLM14	%	105
COC(=O)C1=COC(OC2OC(CO)C(O)C(O)C2O)C2C(CO)=CC(O)C12 (stereo unspecified)	MOLM14	%	107
O=C(O)C1=CO[C@@H](O[C@@H]2O[C@H](CO)[C@@H](O)[C@H](O)[C@H]2O)[C@@H]2C(CO)=CC[C@H]12	MOLM14	%	91.6
Cc1cccc(-c2[nH]ncc2-c2ccc3ncccc3n2)n1	MOLM14	%	105
O=c1[nH]cnc2nc[nH]c12	MOLM14	%	115
CCCCCCCCCC=O	MOLM14	%	105
N#Cc1ccc(C(c2ccc(C#N)cc2)n2cncn2)cc1	MOLM14	%	92.3
CCN(CC)CCOc1ccc(C(=C(Cl)c2ccccc2)c2ccccc2)cc1 [Clomifene citrate (Serophene)]	MOLM14	%	60.9

* * *

- Tested on: OCI-AML2
- protocol: cell viability relative to vehicle control; higher = less cytotoxic
- experimentalParameters: 10 µM; SRSF2 genotype: wt/wt
This section presents compounds with their documented cell viability values.

compound	cell viability
O=C[C@H](O)[C@@H](O)[C@H](O[C@H]1O[C@H](CO)[C@@H](O[C@H]2O[C@H](CO)[C@@H](O[C@H]3O[C@H](CO)[C@@H](O[C@H]4O[C@H](CO)[C@@H](O)[C@H](O)[C@H]4O)[C@H](O)[C@H]3O)[C@H](O)[C@H]2O)[C@H](O)[C@H]1O)[C@H](O)CO	110%
O=C(O)CCCC[C@@H]1SC[C@@H]2NC(=O)N[C@@H]21	99.2%
C[C@@H]1O[C@@H](OC[C@H]2O[C@@H](Oc3cc(O)c4c(c3)O[C@H](c3ccc(O)cc3)CC4=O)[C@H](O)[C@@H](O)[C@@H]2O)[C@H](O)[C@H](O)[C@H]1O	99.4%
NC(=O)c1cccc2[nH]c(-c3ccc(C4CCCN4)cc3F)nc12 (stereo unspecified)	54.3%
CCN(CC)CCCC[C@H](NC(=O)[C@H](CC(C)C)NC(=O)[C@H](C)NC(=O)[C@H](Cc1ccccc1)NC(=O)c1ccc(C(C)(C)C)cc1)C(=O)N[C@@H](CO)C(=O)OC	113%
O[C@@H]1CO[C@H]2[C@@H]1OC[C@@H]2O [Isosorbide]	99.5%

Origin of values: the supplement of paper PMC10981050
